TARGET_UNDER_TEST: FGF receptor/BKL complex
Sequence (Q86Z14 whole entry, one chain of several): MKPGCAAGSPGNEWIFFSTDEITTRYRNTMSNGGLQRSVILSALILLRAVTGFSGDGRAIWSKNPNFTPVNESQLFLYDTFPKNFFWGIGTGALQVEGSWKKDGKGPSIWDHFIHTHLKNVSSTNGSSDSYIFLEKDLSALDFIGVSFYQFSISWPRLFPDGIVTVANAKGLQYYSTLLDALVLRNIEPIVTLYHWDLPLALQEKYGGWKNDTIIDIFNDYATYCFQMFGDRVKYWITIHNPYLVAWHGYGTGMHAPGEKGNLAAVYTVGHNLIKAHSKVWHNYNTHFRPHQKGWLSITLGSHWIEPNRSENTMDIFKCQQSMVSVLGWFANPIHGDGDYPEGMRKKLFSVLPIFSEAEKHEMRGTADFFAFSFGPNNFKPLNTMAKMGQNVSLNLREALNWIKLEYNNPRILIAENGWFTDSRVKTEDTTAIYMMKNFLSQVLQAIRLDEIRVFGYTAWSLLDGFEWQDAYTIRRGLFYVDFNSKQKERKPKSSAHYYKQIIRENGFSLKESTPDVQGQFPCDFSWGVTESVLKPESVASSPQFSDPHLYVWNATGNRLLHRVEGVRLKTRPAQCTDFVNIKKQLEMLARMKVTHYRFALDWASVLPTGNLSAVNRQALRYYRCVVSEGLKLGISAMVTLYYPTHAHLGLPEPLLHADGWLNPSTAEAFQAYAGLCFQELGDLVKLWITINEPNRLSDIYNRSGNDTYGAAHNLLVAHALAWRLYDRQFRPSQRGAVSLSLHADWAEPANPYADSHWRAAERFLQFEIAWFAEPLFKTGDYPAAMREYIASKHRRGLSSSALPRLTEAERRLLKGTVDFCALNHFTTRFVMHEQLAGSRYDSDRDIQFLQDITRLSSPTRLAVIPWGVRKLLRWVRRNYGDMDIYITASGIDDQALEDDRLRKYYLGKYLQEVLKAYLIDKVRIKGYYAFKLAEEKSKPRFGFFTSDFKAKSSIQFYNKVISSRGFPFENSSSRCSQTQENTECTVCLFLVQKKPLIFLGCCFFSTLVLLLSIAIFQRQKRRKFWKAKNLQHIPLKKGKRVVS
ASSAY_DETAILS: FGF receptor potency in an Erk phosphorylation assay in HEK293 overexpressing human BKL
Type: cell-based
EXPERIMENTAL_CONDITIONS: HEK293/BKL cells, pERK after 12 minutes, absence of HSA; read-out: EC50
RECORDED_ENDPOINT: pEC50
Conceptually, pEC50 converts a concentration in mol/L into minus its log10.

Data request, read-out pEC50, for S{Beta-181}-[2-[2-[[2-[2-[2-[[2-[2-[2-[[(4S)-4-carboxy-4-(13-carboxytridecanoyl-amino)butanoyl]amino]ethoxy]ethoxy]acetyl]amino]ethoxy]ethoxy]acetyl]amino]-ethylamino]-2-oxoethyl]-Ala[Gln121,Leu168,Cy … (protein) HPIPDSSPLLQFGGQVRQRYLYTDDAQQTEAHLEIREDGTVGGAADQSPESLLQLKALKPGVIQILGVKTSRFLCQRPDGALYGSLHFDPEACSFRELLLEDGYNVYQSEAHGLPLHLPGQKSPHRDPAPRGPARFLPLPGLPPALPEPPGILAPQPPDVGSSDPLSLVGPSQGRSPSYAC 7.24
